Target: tau (Homo sapiens, UniProt P10636)
Sequence (P10636 623-695 limits assumed): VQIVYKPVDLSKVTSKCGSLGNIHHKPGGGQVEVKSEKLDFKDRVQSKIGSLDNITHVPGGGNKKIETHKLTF
Assay: MCE Phenols Library screening, tau biosensor cell seeding assay (AvZ)
Assay type: cell-based
Details: 10 μM phenol in cell cultures, AD brain homogenate preincubated 16 hours, two biological replicates; positive = catalyzes seeding, negative = inhibits
MEASURED_QUANTITY: AvZ (average z score of seeding, SDs from the mean level of seeding)

Please review the following examples before continuing.
compound="O=C(O)Cc1c[nH]c2ccc(O)cc12 [5-Hydroxyindole-3-acetic acid]" value=-0.466
compound="CCc1cccc(C)c1O [2-Ethyl-6-methylphenol]" value=0.167
compound="COc1cc(/C=C/C(=O)[O-])ccc1O.[Na+] [Ferulic acid (sodium)]" value=-0.669
compound="CCCCCCC[C@H](O)CC(=O)CCc1ccc(O)c(OC)c1 [8-Gingerol]" value=-0.236

Q: I'm curious: which AvZ (average z score of seeding, SDs from the mean level of seeding) was measured for O=C(O)CCc1cccc(O)c1 [3-(3-Hydroxyphenyl)propionic acid] tested on tau (Homo sapiens, UniProt P10636)?
A: 1.337

Q: I'm curious: which AvZ (average z score of seeding, SDs from the mean level of seeding) was measured for OCCc1ccccc1 [2-Phenylethanol] tested on tau (Homo sapiens, UniProt P10636)?
A: 0.671

Q: I'm curious: which AvZ (average z score of seeding, SDs from the mean level of seeding) was measured for N[C@@H](Cc1ccc(O)c(Cl)c1)C(=O)O [3-Chloro-L-tyrosine] tested on tau (Homo sapiens, UniProt P10636)?
A: -0.032

Q: I'm curious: which AvZ (average z score of seeding, SDs from the mean level of seeding) was measured for Cc1cccc(O)c1O [3-Methylcatechol] tested on tau (Homo sapiens, UniProt P10636)?
A: -0.42

Q: I'm curious: which AvZ (average z score of seeding, SDs from the mean level of seeding) was measured for COc1ccc(C(=O)O)cc1O [Isovanillic acid] tested on tau (Homo sapiens, UniProt P10636)?
A: -0.151

Q: I'm curious: which AvZ (average z score of seeding, SDs from the mean level of seeding) was measured for CC(=O)OCCc1ccc(O)c(O)c1 [4-Hydroxytyrosol acetate] tested on tau (Homo sapiens, UniProt P10636)?
A: -0.526

Q: I'm curious: which AvZ (average z score of seeding, SDs from the mean level of seeding) was measured for O=C(O)C(O)c1ccc(O)cc1 (stereo not shown) [p-Hydroxymandelic acid] tested on tau (Homo sapiens, UniProt P10636)?
A: 1.127

Q: I'm curious: which AvZ (average z score of seeding, SDs from the mean level of seeding) was measured for COC(=O)Cc1ccc(O)cc1 [Methyl 4-hydroxyphenylacetate] tested on tau (Homo sapiens, UniProt P10636)?
A: -0.61

Q: I'm curious: which AvZ (average z score of seeding, SDs from the mean level of seeding) was measured for O=C(O)[C@H](O)Cc1ccc(O)c(O)c1 [Danshensu] tested on tau (Homo sapiens, UniProt P10636)?
A: -0.723

Q: I'm curious: which AvZ (average z score of seeding, SDs from the mean level of seeding) was measured for Oc1cccc(O)c1O [Pyrogallol] tested on tau (Homo sapiens, UniProt P10636)?
A: -0.851

Q: I'm curious: which AvZ (average z score of seeding, SDs from the mean level of seeding) was measured for COc1ccc(C=O)cc1O [Isovanillin] tested on tau (Homo sapiens, UniProt P10636)?
A: -0.519

Q: I'm curious: which AvZ (average z score of seeding, SDs from the mean level of seeding) was measured for COc1cc(/C=C/C(=O)O)ccc1O [Ferulic acid] tested on tau (Homo sapiens, UniProt P10636)?
A: -0.451
